Read-out: Thrombomodulin, THBD (gene 7056)
Experiment: BSK_CASM3C_Thrombomodulin: BioMAP Diversity Plus: CASM3C Assay for Thrombomodulin Biomarker Activity (AID 2283051);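 further: thrombomodulin protein level measured by ELISA 24 h after dosing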
Conditions: primary human coronary artery smooth muscle cells; actives raise or lower the signal
Calls of active or inactive are those of the source. How the source made its calls: active means hit-call score of the fitted dose curve at least 0.9, where 1 is the maximum; inactive means score below 0.9.
Respond only with the outcome that fits, drawn from active, inactive

> print(dat)
                                   compound  class.name
1                   O=[N+]([O-])C(CO)(CO)CO    inactive
2                    CC(=O)OCCOCCOCCOC(C)=O    inactive
3                      C1CCC(SSC2CCCCC2)CC1      active
4  COCCOC[C@H](CC1(C(=O)NC2CCC(C(=O)O)CC2)CCCC1)C(=O)Oc1ccc2c(c1)CCC2 (stereo partly specified)    inactive
5  C[Si]1(C)O[Si](C)(C)O[Si](C)(C)O[Si](C)(C)O1    inactive
6                                 COCCOCCOC    inactive

(Q) Record request — test call for Oc1ccc2c(c1)OC[C@@H](N1CCC(O)(c3ccc(F)cc3)CC1)[C@H]2O
(A) inactive

(Q) Record request — test call for Cc1ccc(N(C)C)cc1
(A) inactive

(Q) Record request — test call for CN[C@H]1CC[C@@H](c2ccc(Cl)c(Cl)c2)c2ccc(S(N)(=O)=O)cc21
(A) inactive

(Q) Record request — test call for CCCCC(CC)COC(=O)CC(C(=O)OCC(CC)CCCC)S(=O)(=O)O (stereo unspecified)
(A) inactive

(Q) Record request — test call for CC=Cc1ccc(O)c(OC)c1
(A) inactive

(Q) Record request — test call for CC(C)c1ccc(C(=O)N=C(N)N)cc1S(C)(=O)=O
(A) inactive

(Q) Record request — test call for O=c1c(O)c(-c2ccc(O)c(O)c2)oc2cc(O)cc(O)c12
(A) inactive

(Q) Record request — test call for Cc1ccc2ncccc2c1
(A) inactive

----------
Experiment: ATG_CMV_CIS: Attagene CIS-FACTORIAL HepG2 Assay for human CMV (Internal Marker) (AID 2282928);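 further: endpoint acts as a background internal control marker rather than a target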
Conditions: HepG2 CMV promoter reporter, transcription factor profiling; actives raise or lower the signal
The source made the active and inactive calls. Rule for the calls: active = hit-call score of the fitted dose curve at least 0.9, where 1 is the maximum; inactive = score below 0.9.
READOUT KIND: AC50

Known AC50 results, listed for orientation:
> print(dat)
                                  structure           result
1  C[C@]12C=CC(=O)C=C1CC[C@@H]1[C@@H]2C(=O)C[C@@]2(C)[C@H]1CC[C@]2(O)C(=O)CO         inactive
2                 CC(=O)OC/C=C(\C)CCC=C(C)C         inactive
3               NCC1(Cc2noc(=O)[nH]2)CCCCC1         inactive
4  COc1cc(-c2nc(NC(=O)c3cc4cc(C)cc(C)c4n3CC(=O)O)sc2CCC2CCCCC2)c(OC)cc1Cl  3.3 µM (active)

Turning now to a further record.
(Q) Which AC50 is listed for O=C(O)Cc1ccccc1Nc1c(Cl)cccc1Cl ?
(A) inactive

----------
Molecular target: human Dopamine Transporter (DAT), SLC6A3 (gene 6531) (UniProt Q01959)
Sequence (Q01959 whole entry, looked up): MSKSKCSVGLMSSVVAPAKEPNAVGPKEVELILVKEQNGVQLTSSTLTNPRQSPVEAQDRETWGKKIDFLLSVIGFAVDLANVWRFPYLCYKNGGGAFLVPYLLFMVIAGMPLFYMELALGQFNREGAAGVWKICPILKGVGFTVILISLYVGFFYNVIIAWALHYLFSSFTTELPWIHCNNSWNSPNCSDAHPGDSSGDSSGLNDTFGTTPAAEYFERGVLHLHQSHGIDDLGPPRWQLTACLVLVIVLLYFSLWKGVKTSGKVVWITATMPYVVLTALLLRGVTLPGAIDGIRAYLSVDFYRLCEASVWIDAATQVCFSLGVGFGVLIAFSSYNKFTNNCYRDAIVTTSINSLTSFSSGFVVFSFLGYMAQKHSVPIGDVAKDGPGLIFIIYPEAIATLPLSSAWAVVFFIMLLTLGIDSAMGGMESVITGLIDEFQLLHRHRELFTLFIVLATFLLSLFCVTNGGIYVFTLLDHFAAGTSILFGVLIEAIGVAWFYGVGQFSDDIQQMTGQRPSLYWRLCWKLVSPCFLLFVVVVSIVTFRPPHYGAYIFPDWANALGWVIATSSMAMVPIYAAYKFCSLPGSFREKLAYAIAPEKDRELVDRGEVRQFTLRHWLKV
Test: NVS_TR_hDAT: NovaScreen (NVS) Transporter Assay for human Dopamine Transporter (DAT) (AID 2283374);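 further: activity means loss of bound radioligand signal relative to DMSO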
Records with an inconclusive call do not appear. Calls of active or inactive are those of the source. The calls were made as follows: active = hit-call score of the fitted dose curve at least 0.9, where 1 is the maximum; inconclusive = response in the unintended direction; inactive = score below 0.9.
Respond only with the outcome that fits, drawn from active, inactive

> print(dat)
                                  structure                            assayed.system  class.name
1                        CCOC(=O)CCC(=O)OCC  human Dopamine Transporter (DAT), SLC6A3 (gene 6531) (UniProt Q01959)    inactive
2  CN1CCN(Cc2cc(-c3ccc4[nH]c(=O)oc4c3)co2)[C@@H](c2ccc(F)cc2)C1  human Dopamine Transporter (DAT), SLC6A3 (gene 6531) (UniProt Q01959)      active

Now examine the next entry.
(Q) Record request — test call for CCOC(=O)C(C)(C)Oc1ccc(Cl)cc1
(A) inactive

----------
Read-out: Cytochrome P450 (CYP1A2), CYP1A2 (gene 1544)
Assay: LTEA_HepaRG_CYP1A2: Life Technologies and Expression Analysis (LTEA) Assay for Cytochrome P450 (CYP1A2) using HepaRG (AID 2283479)
Settings: mRNA level, 48 h; actives raise or lower the signal
The source made the active and inactive calls. The calls were made as follows: active = hit-call score of the fitted dose curve at least 0.9, where 1 is the maximum; inactive = score below 0.9.
Respond only with the outcome that fits, drawn from T (active), F (inactive)

> print(dat)
                                  structure  class.name
1  COc1ccc2c(c1)c(CC(=O)O)c(C)n2C(=O)c1ccc(Cl)cc1           F
2                                 COCCOCCOC           T
3                               CCCCCCCCCCC           F
4  Nc1nc(N)c2nc(CNc3ccc(C(=O)N[C@@H](CCC(=O)O)C(=O)O)cc3)cnc2n1           T
5                    CC(=O)OCCOCCOCCOC(C)=O           F

(Q) Record request — test call for CCCCCCCC=O
(A) T

(Q) Record request — test call for FC(F)(F)C(F)(F)C(F)(F)C(F)(F)C(F)(F)C(F)(F)CCI
(A) F

(Q) Record request — test call for C=CCc1ccc(O)c(OC)c1
(A) F

(Q) Record request — test call for Cc1ccc2ncccc2c1
(A) F

(Q) Record request — test call for CCCCCCCCCCCCCCCCCC(=O)O
(A) F

(Q) Record request — test call for Cc1cc(=O)[nH]c(=S)[nH]1
(A) T

(Q) Record request — test call for COc1cc(S(=O)(=O)O)c(C)cc1N=Nc1c(O)ccc2cc(S(=O)(=O)O)ccc12
(A) F

----------
Target: Adenosine receptor A1 (Bos taurus)
Experiment: NVS_GPCR_bAdoR_NonSelective: NovaScreen (NVS) G Protein-Coupled Receptor Assay for bovine Adenosine Receptor (AdoR), Non-selective Binding (AID 2283244)
Inconclusive results are not listed. Activity calls are given as the source filed them. The calls were made as follows: active = hit-call score of the fitted dose curve at least 0.9, where 1 is the maximum; inconclusive = response in the unintended direction; inactive = score below 0.9.
Respond only with the outcome that fits, drawn from Y for active, N for inactive

Sample answers from the record:
> print(dat)
                    structure                      assayed.system  class.name
1                  Nc1ccccc1N  Adenosine receptor A1 (Bos taurus)           Y
2  Oc1ccc2ccccc2c1N=Nc1ccccc1  Adenosine receptor A1 (Bos taurus)           Y
3            Cc1ccc(N(C)C)cc1  Adenosine receptor A1 (Bos taurus)           N

Now examine the next entry.
(Q) Record request — test call for Nc1ccc2c(c1)C(=O)c1ccccc1C2=O
(A) Y

----------
Assay: TOX21_p53_BLA_p2_viability: Viability Assessment in the Tox21 HCT-116 p53 Agonism Beta-lactamase Assay, Phase 2 (AID 2283591);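 further: compound exposure lasted 16 h at 37 °C; actives lower the ATP signal meaning cytotoxicity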
Inconclusive results are not listed. The source made the active and inactive calls. Rule for the calls: active = hit-call score of the fitted dose curve at least 0.9, where 1 is the maximum; inconclusive = response in the unintended direction; inactive = score below 0.9.
Respond only with the outcome that fits, drawn from label 1 = active, label 0 = inactive

Sample answers from the record:
> print(dat)
                                   compound  class.name
1                           CCCCN(CCCC)CCCC     label 0
2  COc1cccc2c1C(=O)c1c(O)c3c(c(O)c1C2=O)C[C@@](O)(C(=O)CO)C[C@@H]3O[C@H]1C[C@H](N)[C@H](O)[C@H](C)O1     label 0

(Q) Record request — test call for Cc1ccc(C)c(C)c1
(A) label 0

(Q) Record request — test call for CCCCc1ccc2c(n1)[C@@H](c1ccc(OC)cc1C[C@H](C)C(=O)O)[C@H](C(=O)O)[C@H]2c1ccc2c(c1)OCO2
(A) label 0

(Q) Record request — test call for CCCCCCCCCCC
(A) label 0

----------
Read-out: Bcl-2 (BID) gene, BID (gene 637)
Experiment: LTEA_HepaRG_BID: Life Technologies and Expression Analysis (LTEA) Assay for Bcl-2 (BID) gene using HepaRG (AID 2283476)
Details: mRNA level, 48 h; actives raise or lower the signal
Active and inactive are the calls of the source. The calls were made as follows: active = hit-call score of the fitted dose curve at least 0.9, where 1 is the maximum; inactive = score below 0.9.
Respond only with the outcome that fits, drawn from yes = active, no = inactive

Sample answers from the record:
> print(dat)
                                   molecule  class.name
1  CCCCC(CC)COC(=O)CC(C(=O)OCC(CC)CCCC)S(=O)(=O)O (stereo not drawn)         yes
2                               Cc1ccccc1Cl          no
3                               CCCCCC(=O)O          no
4  FC(F)(F)C(F)(F)C(F)(F)C(F)(F)C(F)(F)C(F)(F)CCI          no
5                            CCCCCCCCCCCCCO          no

(Q) Record request — test call for CC(=O)C(C)=CC1C(C)=CCCC1(C)C (stereo not drawn)
(A) no

(Q) Record request — test call for Cc1cc(=O)[nH]c(=S)[nH]1
(A) no

(Q) Record request — test call for CNCc1cc(F)ccc1Oc1ccc(Cl)c(Cl)c1
(A) no

(Q) Record request — test call for Cc1nc(-c2ccc3c(c2)CCN(CCC2CCC(NC(=O)/C=C/c4ccc(F)cc4)CC2)CC3)no1 (stereo not drawn)
(A) no

(Q) Record request — test call for O=C(OCCCCCOC(=O)c1ccccc1)c1ccccc1
(A) yes

(Q) Record request — test call for Cc1c(C(=O)O)c(O)cc2c1C(=O)c1c(O)c([C@@H]3O[C@H](CO)[C@@H](O)[C@H](O)[C@H]3O)c(O)c(O)c1C2=O
(A) no

(Q) Record request — test call for CCCCCCC(=O)OCC
(A) no

(Q) Record request — test call for CCCCOC(=O)CCCCCCCCC(=O)OCCCC
(A) no

Taken from PubChem BioAssay (EPA / NIEHS).
